- Tested on: rice
- PROTOCOL_TEXT: Low temperature assay on rice seedlings
- Type: in vivo
- TEST_CONTEXT: 0.1 mg/l, 3 °C, 9 days
MEASUREMENT_TYPE: Height (cm)
Please respond with the number in cm and leave the unit unwritten.

The cases that follow already have their Height on record.
COMPOUND	UNIT_STRING	Height
CC[C@@H](C(C)C)[C@@H](O)[C@H](O)[C@@H](C)[C@H]1CCC2C3COC(=O)C4C[C@H](O)[C@H](O)C[C@]4(C)C3CC[C@@]21C (stereo partly drawn) [BR2]	cm	7.8
CC(C)(O)CC[C@@H](O)[C@](C)(O)[C@H]1CC[C@@]2(O)[C@@H]3CC(=O)[C@@H]4C[C@@H](O)[C@@H](O)C[C@]4(C)[C@H]3CC[C@]12C [BR6]	cm	7.4
CC(C)[C@H](C)[C@@H](O)[C@H](O)[C@@H](C)[C@H]1CCC2C3CC(=O)C4C[C@H](O)CC[C@]4(C)C3CC[C@@]21C (stereo partly drawn) [BR4]	cm	7.8
C=C(C(C)C)[C@@H](O)[C@H](O)[C@@H](C)[C@H]1CCC2C3COC(=O)C4C[C@H](O)[C@H](O)C[C@]4(C)C3CC[C@@]21C (stereo partly drawn) [BR3]	cm	7.8
CC(C)[C@H](C)[C@@H](O)[C@H](O)[C@@H](C)[C@H]1CCC2C3COC(=O)C4C[C@H](O)[C@H](O)C[C@]4(C)C3CC[C@@]21C (stereo partly drawn) [BR1]	cm	7.4

Then there is this compound:
Q) May I ask what Height has been recorded for CC(C)C[C@@H](O)[C@H](O)[C@@H](C)[C@H]1CCC2C3CC(=O)C4C[C@H](O)[C@H](O)C[C@]4(C)C3CC[C@@]21C (stereo partly drawn) [BR5] ?
A) 7.9

These data points were gathered from patent US9326506B2.
